// data source = paper PMC9970268

- testDescription: in vivo
- conditionsUsed: rats and dogs
measuredMetric: NOAEL (mg/kg)
One number for each entry, in mg/kg.

[in] Quick one: NOAEL for CCn1c2ccccc2c2cc(-n3nncc3-c3ccccc3)ccc21 [MBQ-167] ?
[out] 1000

----------
- measurementTarget: CYP2C19 (Homo sapiens, UniProt P33261)
- Construct: purchased Promega
- Sequence (P33261 whole entry): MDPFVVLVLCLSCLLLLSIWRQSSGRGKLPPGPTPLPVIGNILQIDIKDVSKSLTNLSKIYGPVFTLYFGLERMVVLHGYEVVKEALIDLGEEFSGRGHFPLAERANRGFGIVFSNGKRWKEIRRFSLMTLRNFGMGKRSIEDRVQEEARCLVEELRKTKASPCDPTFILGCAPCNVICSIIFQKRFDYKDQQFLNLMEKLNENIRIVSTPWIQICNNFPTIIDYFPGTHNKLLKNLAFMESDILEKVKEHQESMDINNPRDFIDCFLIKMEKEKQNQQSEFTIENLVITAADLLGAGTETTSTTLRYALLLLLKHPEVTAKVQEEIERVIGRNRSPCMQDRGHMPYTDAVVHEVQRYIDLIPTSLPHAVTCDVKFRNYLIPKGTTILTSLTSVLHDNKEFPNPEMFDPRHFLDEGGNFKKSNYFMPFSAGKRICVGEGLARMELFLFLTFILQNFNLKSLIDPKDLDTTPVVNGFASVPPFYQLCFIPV
- testDescription: CyP450 enzyme assay (P450-Glo)
- Format: in vitro ADME
- conditionsUsed: human, recombinant human CYP enzyme, 0.001–100 μmol/L
measuredMetric: IC50 at 30 min
Please report the result as a number followed by the unit.

CCn1c2ccccc2c2cc(-n3nncc3-c3cccc(C)c3)ccc21 :: 580 nM

Continue with the next molecule.
[in] Quick one: IC50 at 30 min for CCn1c2ccccc2c2cc(-n3nncc3-c3cccc(OC)c3)ccc21 ?
[out] 523 nM
